# reported protein stability index; entries follow
B1: FAM98B (parent)
chain: QLDKNSEVYQEVQAMFDTLGIPKS

- Variants of: B1
- protocolNotes: protein stability index of a GFP-peptide fusion (GPS, HEK-293T) (PSI 1-6); higher = more stable;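 also: lentivirally expressed fusions sorted by FACS into six bins by GFP to DsRed ratio, PSI derived from sequencing read proportions per bin multiplied by bin number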
- conditionSet: c terminus: a fixed tail appended
// no unit, no text: just the number

# count of solved cases: 2
S6F ... 2.63
F16Y ... 3.57

Kindly consider the entry below.
Q: Please give the documented protein stability index of P22S
A: 4.04

Cited source: the supplement of paper PMC10567573
